PROTOCOL DETAILS: in vitro
TEST CONTEXT: rat, gh3-tre-luc cells, AC50 (uM) modified / 1000, Tox21_110001=Tox21_201178; viability, 1 nM T3 present, 24 h
QUANTITY MEASURED: CC50 at 24 h

In: Fill in the blank: the reported CC50 at 24 h of `CC(Cl)(Cl)[N+](=O)[O-]` is ____.
Out: > 90 µM

====

CC50 at 24 h: recorded values
PROTOCOL DETAILS: in vitro
TEST CONTEXT: rat, gh3-tre-luc cells, AC50 (uM) modified / 1000

Solved cases below.
[[record]]
compound = "Cc1ccc(O)c(O)c1"
quantity_measured = "CC50 at 24 h"
recorded_measurement = "38.5 µM"

[[record]]
compound = "COc1ccc(CCC(C)=O)cc1"
quantity_measured = "CC50 at 24 h"
recorded_measurement = "> 90 µM"

[[record]]
compound = "CC(C)C(O)(c1ccc(OC(F)(F)F)cc1)c1cncnc1 (stereo not shown)"
quantity_measured = "CC50 at 24 h"
recorded_measurement = "> 90 µM"


Now consider a different compound.
In: Fill in the blank: the reported CC50 at 24 h of `N[C@@H](Cc1ccc(O)c(O)c1)C(=O)O` is ____.
Out: > 50 µM
